# assayed target: T1, human serum amyloid P component (SAP), purified (Homo sapiens, UniProt P02743 20-223)
# T1 construct: Immobilised directly, amine-coupled, captured on O-phosphoethanolamine or by sheep polyclonal antibody, depending on the assay; also called human SAP; native human SAP
# T1 sequence (P02743 20-223): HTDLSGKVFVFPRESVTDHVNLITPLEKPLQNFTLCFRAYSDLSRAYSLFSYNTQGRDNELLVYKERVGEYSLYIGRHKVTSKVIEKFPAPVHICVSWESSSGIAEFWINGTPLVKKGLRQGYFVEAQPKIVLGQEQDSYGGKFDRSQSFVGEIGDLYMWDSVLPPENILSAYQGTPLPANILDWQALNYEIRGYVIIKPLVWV
# protocol summary: Biacore, human SAP amine-coupled on C1 chip, culture supernatant, 1 to 1 dissociation model, single curve
Please respond with reported koff for every item in the list.
Your answer is read as s⁻¹, so omit the unit and give the number.

The binder listed as SAP-K H3L1 humanised antibody (antibody, V domains shown) VH: QVQLVQSGAEVKKPGSSVKVSCKASGYTFTSYWMHWVRQAPGQGLEWIGMIHPNSVNTNYNEKFKSRATLTVDKSTSTAYMELSSLRSEDTAVYYCARRNDYYWYFDVWGQGTLVTVSS VL: DIQMTQSPSSLSASVGDRVTITCKASQNVNSNVAWYQQKPGKAPKALIYSASYRYSGVPSRFSGSGSGTDFTLTISSLQPEDFATYYCQQCNNYPFTFGQGTKLEIK has a reported koff of 0.0236

Entry SAP-K H2L1 humanised antibody (antibody, V domains shown) VH: QVQLVQSGAEVKKPGSSVKVSCKASGYTFTSYWMHWVRQAPGQGLEWIGMIHPNSVNTNYNEKFKSRATITADKSTSTAYMELSSLRSEDTAVYYCARRNDYYWYFDVWGQGTLVTVSS VL: DIQMTQSPSSLSASVGDRVTITCKASQNVNSNVAWYQQKPGKAPKALIYSASYRYSGVPSRFSGSGSGTDFTLTISSLQPEDFATYYCQQCNNYPFTFGQGTKLEIK ; koff = 0.0321

# koff of SAP-K H1L0 humanised antibody (antibody, V domains shown) VH: QVQLVQSGAEVKKPGSSVKVSCKASGYTFTSYWMHWVRQAPGQGLEWMGMIHPNSVNTNYNEKFKSRVTITADKSTSTAYMELSSLRSEDTAVYYCARRNDYYWYFDVWGQGTLVTVSS VL: DIQMTQSPSSLSASVGDRVTITCKASQNVNSNVAWYQQKPGKAPKLLIYSASYRYSGVPSRFSGSGSGTDFTLTISSLQPEDFATYYCQQCNNYPFTFGQGTKLEIK = 0.0171

The binder identified as SAP-K H0L0 humanised antibody (antibody, V domains shown) VH: QVQLVQSGAEVKKPGSSVKVSCKASGGTFSSYWMHWVRQAPGQGLEWMGMIHPNSVNTNYNEKFKSRVTITADKSTSTAYMELSSLRSEDTAVYYCARRNDYYWYFDVWGQGTLVTVSS VL: DIQMTQSPSSLSASVGDRVTITCKASQNVNSNVAWYQQKPGKAPKLLIYSASYRYSGVPSRFSGSGSGTDFTLTISSLQPEDFATYYCQQCNNYPFTFGQGTKLEIK registered its koff at 0.0263

koff reading for SAP-K H2L0 humanised antibody (antibody, V domains shown) VH: QVQLVQSGAEVKKPGSSVKVSCKASGYTFTSYWMHWVRQAPGQGLEWIGMIHPNSVNTNYNEKFKSRATITADKSTSTAYMELSSLRSEDTAVYYCARRNDYYWYFDVWGQGTLVTVSS VL: DIQMTQSPSSLSASVGDRVTITCKASQNVNSNVAWYQQKPGKAPKLLIYSASYRYSGVPSRFSGSGSGTDFTLTISSLQPEDFATYYCQQCNNYPFTFGQGTKLEIK : 0.0204

Record SAP-K H1L1 humanised antibody (antibody, V domains shown) VH: QVQLVQSGAEVKKPGSSVKVSCKASGYTFTSYWMHWVRQAPGQGLEWMGMIHPNSVNTNYNEKFKSRVTITADKSTSTAYMELSSLRSEDTAVYYCARRNDYYWYFDVWGQGTLVTVSS VL: DIQMTQSPSSLSASVGDRVTITCKASQNVNSNVAWYQQKPGKAPKALIYSASYRYSGVPSRFSGSGSGTDFTLTISSLQPEDFATYYCQQCNNYPFTFGQGTKLEIK , field koff: 0.0296
